test system: OVCAR-8 ovarian; experiment: NCI tumour cell line growth inhibition, 48 h
VALUE TYPE: TGI (µM)
The figure you give is taken to be in µM; do not add the unit.

{"COMPOUND": "CC1(C)CC[C@]2(C(=O)O)CC[C@]3(C)C(=CC[C@@H]4[C@@]5(C)CC[C@H](OC6OC(C(=O)O)C(O)C(O)C6O)C(C)(C)[C@@H]5CC[C@]43C)[C@@H]2C1 (some centres undefined)", "TGI [µM]": 44.9}

Prompt: Please give measured TGI of the following entry: CC(C)CC(NC(=O)C(Cc1ccccc1)NC(=O)[C@H]1CC[C@H](NC(=O)C(Cc2ccc(OC(C)(C)C)cc2)NC(=O)OC(C)(C)C)C1)C(N)=O (some centres undefined)
Response: 36

Prompt: Identify the reported TGI for the following entry. COc1ccc2cc1Oc1ccc(cc1)CC1c3cc(OC)c(cc3CCN1C)Oc1c(OC)c(OC)cc3c1C(C2)N(C)CC3 (centres undefined)
Response: 23.2

Prompt: Consider the compound `O=C1OCC(C#Cc2ccccc2)=C1Br` and give its recorded TGI.
Response: 7.26
